The entries below come with measured Kd values attached.
Biological target: T1, PUF4 RNA-binding domain (Saccharomyces cerevisiae, UniProt P25339 537-888)
T1 sequence: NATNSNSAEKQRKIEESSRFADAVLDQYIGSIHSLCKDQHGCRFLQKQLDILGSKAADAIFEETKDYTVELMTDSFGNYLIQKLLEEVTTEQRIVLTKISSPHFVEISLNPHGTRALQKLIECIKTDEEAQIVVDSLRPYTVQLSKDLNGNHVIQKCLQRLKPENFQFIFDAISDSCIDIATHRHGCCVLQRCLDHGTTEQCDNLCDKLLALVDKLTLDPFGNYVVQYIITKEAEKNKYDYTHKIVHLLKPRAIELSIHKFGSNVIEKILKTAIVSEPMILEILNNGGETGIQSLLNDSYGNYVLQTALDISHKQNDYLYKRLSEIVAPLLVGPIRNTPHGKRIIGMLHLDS
Test: Mg; RNA-MaP; 20 mM Na-HEPES pH 7.4, 30 mM KOAc, 0.75 mM MgCl2, 0.1% Tween-20, 5% glycerol, 0.1 mg/mL BSA, 2 mM DTT; 25 C; 0.0125-409.6 nM protein
Conditions: tags: N-His6-TEV cleaved; C-SNAP kept, Cy3B-labelled; label: tethered on chip by stalled RNA polymerase
Numeric answer only, unit nM assumed.

Please review the entries below; each comes with its answer.
| binder | readout-unit | Kd |
| --- | --- | --- |
| Ic_S4_P4E.1_K4.1_C4.1_H4.1_A4.1_[T5G]_[A6T]_F4.1_[T8G]_[A9T]_T4.1 (ssRNA) RNA: UUUGACAACUGAUCGUUCUUUCUUGUAGUUGUUUCUUUCUCGAUCAGUUGUCUUU | nM | 291 |
| UCUCUUUGUAUGGUUGUCUCUU (ssRNA) [Ic_S1_P5E.1_K5.1_C5.1_H5.1_A5.1_[T6G]_[A7G]_F5.1_[A10G]_T5.1] | nM | 717 |

For UCUCUUUGUAUAUAUUAGUUCUCUU (ssRNA) [Id_ii_S1_P4E.3_K4.2_C4.2_[C-2T]_[T-1G]_H4.2_A4.1_F4.1_T4.2] , what is its reported Kd? 3.67

Attribution: paper PMC9352680
